Below: a set of entries, each annotated with reported GI50.
test system: SK-MEL-5; experiment: NCI tumour cell line growth inhibition, 48 h
The source made the active and inactive calls. No stated cut-off is given here; in the data, active = GI50 up to about 1.1 µM and inactive = higher.

COc1ccc(C(=O)C(c2ccc(OC)cc2)C2(O)C(=O)Nc3c(Cl)cc(Cl)cc32)cc1 (stereo unspecified) ... 18.5 µM (inactive)

Req: Entry Cc1nnc(Nc2ccc(Cl)cc2)o1 has what GI50?
Resp: > 10 µM (inactive)

Req: Using the record for COC(=O)C(CC(C)=O)CS(=O)(=O)CC(=O)C(=O)Nc1cccc([N+](=O)[O-])c1 (stereo unspecified) , report its GI50.
Resp: > 100 µM (inactive)

###

tested on: ACHN; assay: NCI tumour cell line growth inhibition, 48 h
Calls of active or inactive are those of the source. No stated cut-off is given here; in the data, active = GI50 up to about 1.1 µM and inactive = higher.
Below: a set of entries, each annotated with reported GI50.

Here are 2 compounds together with their reported answers.
Cc1c(C(=O)NCCO)[n+]([O-])c2cc(Cl)ccc2[n+]1[O-] ... > 100 µM (inactive)
CCOC(=O)NC(=O)c1cn(CCN2CCN(C(=O)NCCCCCCNC(=O)N3CCN(CCn4cc(C(=O)NC(=O)OCC)c(=O)[nH]c4=O)CC3)CC2)c(=O)[nH]c1=O ... > 100 µM (inactive)

Req: For ACHN, provide GI50 of O=C(O)c1ccc(NCc2nc3cc4ccccc4cc3[nH]2)cc1 please.
Resp: > 100 µM (inactive)

###

test system: OVCAR-3; assay: NCI tumour cell line growth inhibition, 48 h
Active and inactive are the calls of the source. No stated cut-off is given here; in the data, active = GI50 up to about 1.1 µM and inactive = higher.
Could you please pick one outcome from this set? true (1) for active, false (0) for inactive

COc1ccc2nc3cc([N+](=O)[O-])ccc3c(Nc3ccc(S(=O)(=O)N=C(N)N)cc3)c2c1 ... false (0)

Req: Please let me know the test result on file for C/C(=N\NC(=S)N1CCCC1)c1nc2cccnc2[nH]1 .
Resp: true (1)

Req: Called result for CSCSCC(CO)NC(=O)/C=C/c1c(C)nc(O)nc1O (centres undefined)
Resp: false (0)

Req: What outcome does the record of this test show for Cc1cc(S(=O)(=O)/N=C2\NCCN2Cc2ccccc2)c(S)cc1Cl ?
Resp: false (0)

Req: What did this assay record as the result for O=C1C[C@@]23CCC4(CC2=CCC[C@H]3O1)OCCO4 ?
Resp: false (0)

Req: What did this assay record as the result for OCCCCn1cc(Cn2ncc3c(O)ncnc32)nn1 ?
Resp: false (0)

Req: I'd appreciate the recorded outcome for Oc1c(Br)cc(/C=C/c2ccnc(/C=C/c3cc(Br)c(O)c(Br)c3)c2)cc1Br from this test.
Resp: false (0)

Req: Could you kindly confirm the outcome this assay logged for COc1cc(C(=O)O)c([N+](=O)[O-])c(OC)c1OC ?
Resp: false (0)

Req: Which outcome did this test record for the molecule COc1ccc(-n2c(=O)n(-c3ccccc3)c(=O)n2-c2ccc(OC)cc2)cc1 ?
Resp: false (0)

###

tested on: OVCAR-5; experiment: NCI tumour cell line growth inhibition, 48 h
Calls of active or inactive are those of the source. No stated cut-off is given here; in the data, active = GI50 up to about 1.1 µM and inactive = higher.
Outcome measure: GI50

Known GI50 results, listed for orientation:
COc1cc(C2C(=O)C(Cl)N2Nc2nc(C)cc(O)n2)cc(OC)c1OC (centres undefined) ... 33 µM (inactive)
CC(C(=O)n1c2ccccc2c2ccccc21)N(c1ccccc1)c1ccccc1 (centres undefined) ... 18.4 µM (inactive)
CC1=NN(C(=O)CC(=O)Nc2ccccc2C)C(=O)C1/N=N\c1ccc(S(=O)(=O)c2ccc(/N=N/C3C(=O)N(C(=O)CC(=O)Nc4ccccc4C)N=C3C)cc2)cc1 (centres undefined) ... > 100 µM (inactive)
O=C(/C=C1\Nc2ccccc2N\C1=C\C(=O)c1ccc(Cl)cc1)c1ccccc1 ... 64 µM (inactive)
CCN(CC)c1ccc2cc(-c3nc4ccccc4n3C)c(=O)oc2c1 ... 1.15 µM (inactive)
CC1=C(C(=O)Nc2ccccc2)C(c2ccc([N+](=O)[O-])cc2)C(C(=O)Nc2ccccc2)=C(C)N1 ... 40.9 µM (inactive)
CC(C)OP(=O)(OC(C)C)c1nn(-c2ccc([N+](=O)[O-])cc2)c(=N)s1 ... > 100 µM (inactive)
CCCCCCOP(=O)(OCCCCCC)OC(C(=O)OC)C(F)(F)F (centres undefined) ... > 100 µM (inactive)

Please find the next compound below.
Req: Give recorded GI50 with OVCAR-5 for the following compound: CCC[C@@H](O)C[C@@H]1CCC[C@H](C[C@@H](O)CC)N1C
Resp: > 100 µM (inactive)
